# MEASUREMENT_TARGET: ALK (Homo sapiens, UniProt Q9UM73)
# Sequence (Q9UM73 19-1620): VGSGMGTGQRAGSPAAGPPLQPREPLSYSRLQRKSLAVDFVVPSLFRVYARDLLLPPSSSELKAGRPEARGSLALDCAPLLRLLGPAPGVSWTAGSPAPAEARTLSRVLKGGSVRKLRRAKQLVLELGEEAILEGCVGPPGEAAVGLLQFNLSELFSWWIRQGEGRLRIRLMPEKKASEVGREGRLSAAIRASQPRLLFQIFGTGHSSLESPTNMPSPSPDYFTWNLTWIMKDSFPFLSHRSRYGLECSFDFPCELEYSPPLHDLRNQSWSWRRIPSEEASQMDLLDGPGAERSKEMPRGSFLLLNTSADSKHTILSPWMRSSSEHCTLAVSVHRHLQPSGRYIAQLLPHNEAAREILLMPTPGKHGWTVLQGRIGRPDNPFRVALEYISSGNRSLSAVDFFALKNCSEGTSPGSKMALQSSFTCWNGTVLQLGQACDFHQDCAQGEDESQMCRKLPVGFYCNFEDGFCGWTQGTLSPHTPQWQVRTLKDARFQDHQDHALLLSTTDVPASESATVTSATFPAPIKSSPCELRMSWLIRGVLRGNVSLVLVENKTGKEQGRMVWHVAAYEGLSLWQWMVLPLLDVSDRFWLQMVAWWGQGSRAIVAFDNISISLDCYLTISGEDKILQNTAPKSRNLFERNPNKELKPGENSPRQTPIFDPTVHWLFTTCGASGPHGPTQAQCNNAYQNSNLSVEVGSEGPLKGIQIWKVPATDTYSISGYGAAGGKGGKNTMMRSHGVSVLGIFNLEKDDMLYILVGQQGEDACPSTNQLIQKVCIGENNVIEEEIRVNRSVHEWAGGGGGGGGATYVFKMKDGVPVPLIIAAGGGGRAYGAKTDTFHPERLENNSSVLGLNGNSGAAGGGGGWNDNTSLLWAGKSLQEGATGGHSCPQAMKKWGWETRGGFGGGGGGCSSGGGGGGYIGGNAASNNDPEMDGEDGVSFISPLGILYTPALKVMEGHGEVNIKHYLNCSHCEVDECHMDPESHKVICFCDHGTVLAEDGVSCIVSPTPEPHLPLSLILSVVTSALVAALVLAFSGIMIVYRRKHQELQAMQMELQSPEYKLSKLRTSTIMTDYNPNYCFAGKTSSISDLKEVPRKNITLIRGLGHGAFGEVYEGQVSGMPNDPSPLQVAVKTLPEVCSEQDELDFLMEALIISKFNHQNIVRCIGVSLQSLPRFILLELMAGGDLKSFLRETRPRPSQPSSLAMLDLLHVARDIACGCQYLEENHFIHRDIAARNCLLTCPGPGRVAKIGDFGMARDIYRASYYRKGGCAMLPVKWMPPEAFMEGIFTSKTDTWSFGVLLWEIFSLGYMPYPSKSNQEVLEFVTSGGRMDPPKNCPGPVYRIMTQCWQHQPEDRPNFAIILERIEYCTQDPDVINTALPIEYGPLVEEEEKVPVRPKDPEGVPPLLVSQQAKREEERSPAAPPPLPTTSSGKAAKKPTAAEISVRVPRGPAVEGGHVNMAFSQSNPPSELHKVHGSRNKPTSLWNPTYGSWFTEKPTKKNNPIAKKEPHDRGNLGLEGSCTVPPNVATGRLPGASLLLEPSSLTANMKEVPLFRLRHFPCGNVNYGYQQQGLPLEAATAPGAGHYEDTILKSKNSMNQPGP
# METHOD_SUMMARY: 33PanQinase Activity Assay, ALK
# SETTINGS: recombinant human protein kinase, 1 μM [γ-33P]-ATP, 30° C. 80 minutes
MEASURED_PARAMETER: IC50 (nM)

// solved cases for IC50 follow
> print(dat)
                                    compound  numeric.value
 1  O=S1(=O)CCC(Cc2nnc(Sc3ncnc4cc(-c5ccc(F)cc5)sc34)o2)C1 (stereo not drawn)           2950
 2  COc1ccc(-c2cc3ncnc(Sc4n[nH]/c(=N\C5CC5)s4)c3s2)cc1           2720
 3   Cc1nnc(Sc2ncnc3cc(-c4ccc(Cl)cc4)sc23)s1          15000
 4      Cn1nnnc1Sc1ncnc2cc(-c3ccc(F)cc3)sc12          13600
 5  Fc1ccc(-c2cc3ncnc(Sc4nnc(-c5ccc(C(F)(F)F)cc5)o4)c3s2)cc1            977
 6  Fc1ccc(-c2cc3ncnc(Sc4nnc(CN5CCOCC5)o4)c3s2)cc1           5590
 7  Fc1ccc(-c2cc3ncnc(Sc4ccc(C(F)(F)F)cc4)c3s2)cc1           1030
 8  CN(C)Cc1nnc(Sc2ncnc3cc(-c4ccc(F)cc4)sc23)o1           6540
 9  CC(C)(C)c1nnc(Sc2ncnc3cc(-c4ccc(F)cc4)sc23)o1           2370
10  COc1ccc(-c2cc3nc(N)nc(Sc4nnc(-c5ccc(Cl)cc5)o4)c3s2)cc1            730

1: Fc1ccc(-c2cc3ncnc(Sc4nnc(-c5ccccc5)o4)c3s2)cc1
2: c1ccc(-c2nc3c(Sc4nnc(-c5ccco5)o4)ncnc3[nH]2)cc1
3: Fc1ccc(-c2cc3ncnc(Sc4nnc(-c5ccncc5)o4)c3s2)cc1
Number of compounds to sort: 3. Sort criterion: IC50, ascending. Your reply should list the labels following the order given in the request.
1, 3, 2
(1: 987 nM, 3: 2940 nM, 2: 22000 nM)

a: COc1ccc(-c2cc3ncnc(Sc4nnc(-c5ccc(C(F)(F)F)cc5)o4)c3s2)cc1
b: c1ccc(-c2nc3c(Sc4nnc(-c5ccncc5)o4)ncnc3[nH]2)cc1
I'd appreciate it if you could identify which of a and b has the greater IC50. Indicate which entry you chose by stating its label.
b
(b: 27000 nM, a: 880 nM)

a: FC(F)(F)c1ccc(-c2nnc(Sc3ncnc4[nH]c(-c5ccccc5)nc34)o2)cc1
b: Fc1ccc(-c2cc3ncnc(Sc4ncc[nH]4)c3s2)cc1
Select one. Lower IC50: a or b Please respond with the label that marks your chosen entry.
a
(a: 860 nM, b: 23700 nM)

Measured values drawn from patent US9925193B2 for this set.
